Assay: Plasma protein binding, rapid equilibrium dialysis
Type: in vitro ADME, mouse
Details: plasma binding, % Bound, mouse plasma
Numbered stars: 1 amine (or outer) side, 2 acyl side, 3 side chain; on linkers, the order of the positions; unused ones are H or OH. Bridge positions count the residues as written; N and C are the ends. Square brackets hold non-standard residues; d marks the D form. Peptide text beside a SMILES is read from it. * marks the point of attachment. Phe(3-Me) = Cc1cccc(C[C@H](N)C(=O)O)c1; Pro(4S-Me) = C[C@@H]1CN[C@H](C(=O)O)C1; Pro(4R-Me) = C[C@H]1CN[C@H](C(=O)O)C1; Hyp = O=C(O)[C@@H]1C[C@@H](O)CN1; NH(4-Me-phenyl) = Cc1ccc(N*)cc1; aThr = C[C@H](O)[C@H](N)C(=O)O; Pip = O=C(O)[C@@H]1CCCCN1; CO = O=C([*:1])[*:2]
PROPERTY: Mouse (%)
Give bare numbers, in %.

Example cases with answers are listed next.
* Cc1ccc(NC(=O)N[C@@H](Cc2cccc(C)c2)C(=O)N[C@@H]2C(=O)N3CCC[C@H]3C(=O)N3CCCC[C@H]3C(=O)N[C@@H](C)C(=O)N3C[C@@H](C)C[C@H]3C(=O)O[C@H]2C)cc1 [Compound 45] ({NH(4-Me-phenyl)-CO}-[Phe(3-Me)][aThr]P[Pip]A[Pro(4S-Me)]; ester 2-C) | 92.1
* Cc1ccc(NC(=O)N[C@@H](Cc2cccc(C)c2)C(=O)N[C@H]2COC(=O)[C@@H]3CCCN3C(=O)[C@H](C)NC(=O)[C@@H]3CCCCN3C(=O)[C@@H]3C[C@@H](O)CN3C2=O)cc1 | 99.4
* Cc1ccc(NC(=O)N[C@@H](Cc2cccc(C)c2)C(=O)N[C@H]2COC(=O)[C@@H]3C[C@H](C)CN3C(=O)[C@H](C)NC(=O)[C@@H]3CCCCN3C(=O)[C@@H]3CCCN3C2=O)cc1 (stereo in doubt) | 61.7

Below: the item to evaluate.
Inquiry: Give its Mouse value. Item: Cc1ccc(NC(=O)N[C@@H](Cc2cccc(C)c2)C(=O)N[C@@H]2C(=O)N3C[C@H](O)C[C@H]3C(=O)N3CCCC[C@H]3C(=O)N[C@@H](C)C(=O)N3C[C@H](C)C[C@H]3C(=O)O[C@H]2C)cc1 [Compound 26] ({NH(4-Me-phenyl)-CO}-[Phe(3-Me)][aThr][Hyp][Pip]A[Pro(4R-Me)]; ester 2-C)
Reply text: 99.1

----------
So I've got a bunch of molecules here, and I need their EC50 values.
Target: S. aureus ClpP (Sa-ClpP) (Staphylococcus aureus, UniProt Q2G036)
Sequence (Q2G036 whole entry): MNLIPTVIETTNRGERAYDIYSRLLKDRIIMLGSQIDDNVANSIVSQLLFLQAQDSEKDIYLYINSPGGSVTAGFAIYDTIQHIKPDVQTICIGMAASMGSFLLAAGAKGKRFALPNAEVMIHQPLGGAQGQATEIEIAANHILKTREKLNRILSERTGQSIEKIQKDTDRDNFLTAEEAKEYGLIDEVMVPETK
Experiment: Casein-BODIPY digestion assay (ClpP activation)
Numbered stars: 1 amine (or outer) side, 2 acyl side, 3 side chain; on linkers, the order of the positions; unused ones are H or OH. Bridge positions count the residues as written; N and C are the ends. Square brackets hold non-standard residues; d marks the D form. Peptide text beside a SMILES is read from it. * marks the point of attachment. Phe(3-CF3) = N[C@@H](Cc1cccc(C(F)(F)F)c1)C(=O)O; Piperazine(2S-CO,4-Me) = CN1CCN[C@H](C(=O)O)C1; Morpholine(3S-CO) = O=C(O)[C@@H]1COCCN1; Phe(3-Me) = Cc1cccc(C[C@H](N)C(=O)O)c1; Pro(4S-Me) = C[C@@H]1CN[C@H](C(=O)O)C1; NH(4-Cl-2-F-phenyl) = Fc1cc(Cl)ccc1N*; Pro(4R-Me) = C[C@H]1CN[C@H](C(=O)O)C1; Hyp = O=C(O)[C@@H]1C[C@@H](O)CN1; NH(4-Et-phenyl) = CCc1ccc(N*)cc1; NH(4-Me-phenyl) = Cc1ccc(N*)cc1; aThr = C[C@H](O)[C@H](N)C(=O)O; Pip = O=C(O)[C@@H]1CCCCN1; X3 = c1cc2c(cc1N*)OCCO2; CO = O=C([*:1])[*:2]; X2 = Fc1cc(N*)ccc1Cl
One number for each entry, in nM.

Example cases with answers are listed next.
- Cc1cccc(C[C@H](NC(=O)Nc2ccc(Cl)cc2)C(=O)N[C@H]2COC(=O)[C@@H]3C[C@H](C)CN3C(=O)[C@H](C)NC(=O)[C@@H]3CCCCN3C(=O)[C@@H]3CCCN3C2=O)c1 [Compound 53]: 670
- CCc1ccc(NC(=O)N[C@@H](Cc2cccc(C)c2)C(=O)N[C@H]2COC(=O)[C@@H]3C[C@H](C)CN3C(=O)[C@H](C)NC(=O)[C@@H]3CCCCN3C(=O)[C@@H]3CCCN3C2=O)cc1 [Compound 52]: 220
- Cc1ccc(NC(=O)N[C@@H](Cc2cccc(C)c2)C(=O)N[C@@H]2C(=O)N3CCC[C@H]3C(=O)N3CCCC[C@H]3C(=O)N[C@@H](C)C(=O)N3C[C@H](C)C[C@H]3C(=O)O[C@H]2C)cc1 [Compound 1] ({NH(4-Me-phenyl)-CO}-[Phe(3-Me)][aThr]P[Pip]A[Pro(4R-Me)]; ester 2-C): 430
- Cc1cccc(C[C@H](NC(=O)Nc2ccc(Cl)cc2)C(=O)N[C@H]2COC(=O)[C@@H]3CCCN3C(=O)[C@H](C)NC(=O)[C@@H]3CCCCN3C(=O)[C@@H]3C[C@@H](O)CN3C2=O)c1 [Compound 56]: 1330

Could you report EC50 for every entry in the following list?
1. Cc1cccc(C[C@H](NC(=O)Nc2ccc3c(c2)OCO3)C(=O)N[C@H]2COC(=O)[C@@H]3C[C@@H](C)CN3C(=O)[C@H](C)NC(=O)[C@@H]3CCCCN3C(=O)[C@@H]3CCCN3C2=O)c1 [Compound 23]
2. Cc1cccc(C[C@H](NC(=O)Nc2ccc(Cl)cc2F)C(=O)N[C@@H]2C(=O)N3CCC[C@H]3C(=O)N3CCN(C)C[C@H]3C(=O)N[C@@H](C)C(=O)N3C[C@H](C)C[C@H]3C(=O)O[C@H]2C)c1 [Compound 11] ({NH(4-Cl-2-F-phenyl)-CO}-[Phe(3-Me)][aThr]P[Piperazine(2S-CO,4-Me)]A[Pro(4R-Me)]; ester 2-C)
3. Cc1ccc(NC(=O)N[C@@H](Cc2cccc(C)c2)C(=O)N[C@@H]2C(=O)N3C[C@H](O)C[C@H]3C(=O)N3CCCC[C@H]3C(=O)N[C@@H](C)C(=O)N3C[C@H](C)C[C@H]3C(=O)O[C@H]2C)cc1 [Compound 26] ({NH(4-Me-phenyl)-CO}-[Phe(3-Me)][aThr][Hyp][Pip]A[Pro(4R-Me)]; ester 2-C)
4. C[C@@H]1C[C@H]2C(=O)OC[C@H](NC(=O)[C@H](Cc3cccc(C(F)(F)F)c3)NC(=O)Nc3ccc(Cl)cc3F)C(=O)N3CCC[C@H]3C(=O)N3CCN(C)C[C@H]3C(=O)N[C@@H](C)C(=O)N2C1 [Compound 18] ({NH(4-Cl-2-F-phenyl)-CO}-[Phe(3-CF3)]SP[Piperazine(2S-CO,4-Me)]A[Pro(4R-Me)]; ester 2-C)
5. Cc1cccc(C[C@H](NC(=O)Nc2ccc3c(c2)OCCO3)C(=O)N[C@@H]2C(=O)N3C[C@H](O)C[C@H]3C(=O)N3CCCC[C@H]3C(=O)N[C@@H](C)C(=O)N3C[C@H](C)C[C@H]3C(=O)O[C@H]2C)c1 [Compound 28] ({X3-CO}-[Phe(3-Me)][aThr][Hyp][Pip]A[Pro(4R-Me)]; ester 2-C)

Reply text:
1: 350; 2: 290; 3: 650; 4: 1750; 5: 910

Could you report EC50 for every entry in the following list?
1. Cc1cccc(C[C@H](NC(=O)Nc2ccc(Cl)c(F)c2)C(=O)N[C@@H]2C(=O)N3C[C@H](O)C[C@H]3C(=O)N3CCCC[C@H]3C(=O)N[C@@H](C)C(=O)N3C[C@@H](C)C[C@H]3C(=O)O[C@H]2C)c1 [Compound 77] ({X2-CO}-[Phe(3-Me)][aThr][Hyp][Pip]A[Pro(4S-Me)]; ester 2-C)
2. CCc1ccc(NC(=O)N[C@@H](Cc2cccc(C)c2)C(=O)N[C@@H]2C(=O)N3C[C@H](O)C[C@H]3C(=O)N3CCOC[C@H]3C(=O)N[C@@H](C)C(=O)N3C[C@H](C)C[C@H]3C(=O)O[C@H]2C)cc1 [Compound 24] ({NH(4-Et-phenyl)-CO}-[Phe(3-Me)][aThr][Hyp][Morpholine(3S-CO)]A[Pro(4R-Me)]; ester 2-C)
3. Cc1cccc(C[C@H](NC(=O)Nc2ccc(Cl)cc2F)C(=O)N[C@@H]2C(=O)N3CCC[C@H]3C(=O)N3CCCC[C@H]3C(=O)N[C@@H](C)C(=O)N3C[C@H](C)C[C@H]3C(=O)O[C@H]2C)c1 [Compound 3] ({NH(4-Cl-2-F-phenyl)-CO}-[Phe(3-Me)][aThr]P[Pip]A[Pro(4R-Me)]; ester 2-C)
4. Cc1cccc(C[C@H](NC(=O)Nc2ccc(Cl)cc2F)C(=O)N[C@@H]2C(=O)N3C[C@H](O)C[C@H]3C(=O)N3CCN(C)C[C@H]3C(=O)N[C@@H](C)C(=O)N3C[C@H](C)C[C@H]3C(=O)O[C@H]2C)c1 [Compound 31] ({NH(4-Cl-2-F-phenyl)-CO}-[Phe(3-Me)][aThr][Hyp][Piperazine(2S-CO,4-Me)]A[Pro(4R-Me)]; ester 2-C)

Reply text:
1: 450; 2: 130; 3: 390; 4: 180

Value source: patent US10570179B2
